The measurements presented in this section are drawn from patent US20230357384A1.

# assay target: T1, FLRT3 (antigen of the binning assay of Table 2) (Homo sapiens (Human), UniProt Q9NZU0 29-528, limits assumed)
# T1 construct: the whole entry for FLRT3 is named
# T1 sequence: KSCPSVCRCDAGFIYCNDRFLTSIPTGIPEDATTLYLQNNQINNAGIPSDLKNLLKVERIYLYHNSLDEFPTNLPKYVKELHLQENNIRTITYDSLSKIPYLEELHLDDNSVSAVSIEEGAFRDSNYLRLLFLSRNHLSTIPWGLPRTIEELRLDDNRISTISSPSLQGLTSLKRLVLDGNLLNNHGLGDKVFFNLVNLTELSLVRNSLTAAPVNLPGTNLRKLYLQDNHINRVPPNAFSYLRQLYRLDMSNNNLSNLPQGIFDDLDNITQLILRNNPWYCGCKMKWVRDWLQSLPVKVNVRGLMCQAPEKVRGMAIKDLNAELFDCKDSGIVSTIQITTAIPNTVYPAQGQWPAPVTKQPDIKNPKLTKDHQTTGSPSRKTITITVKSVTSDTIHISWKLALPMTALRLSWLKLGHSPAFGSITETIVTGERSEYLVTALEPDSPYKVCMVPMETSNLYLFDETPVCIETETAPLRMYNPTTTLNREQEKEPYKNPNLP
# assay procedure: antibody binning matrix (Table 2); competitor: 15G11
measurement type: binning response (no name or unit printed)

>>> reported("2F7 (antibody, V domains shown, Variable domains only) VH: EVQLQQSGPELVKPGASVKMSCKASGYTFTDYYMNWVKQSHGKSLEWIGRVYPSNSGASYNQKFKGKATLTVDKSLSTAYMQLNSLTSEDSAVYYCASSYYFDYWGQGTTLTVSS VL: DIVMTQSHKFMSTSIGDRVNITCKASQDVGTAVAWFQQKPGQSPKLLIYWASTRHTGVPDRFTGSGSGTDFTLTISNVQSEDLADYFCQQYSSYPTFGAGTTLELK")
0.798
>>> reported("1H5 (antibody, V domains shown, Variable domains only) VH: EVQLQQSGPELVKPGASVKMSCKASGYTFTDYYMNWVKQSHGKSLEWIGRVNPSNGVTSYNQKFKGKAALTVDKSLSTAYMQLNSLTSEDSAVYYCARDFLMDYWGQGTSVTVSS VL: DIVMTQSHKFMSTSVGDRVTITCKASQDVGTAVAWYQQKPGQSPKLLIYWASTRHTGVPDRFTGSGSGTDFTLTISNVQSEDLADYFCQQYSSYPTFGGGTKLEIK")
0.97
>>> reported("14B7 (antibody, V domains shown, Variable domains only; also called FLRT3 mAb 14B7; antibody 14B7) VH: QVQLQQSGPELVKPGASVNISCKASGYAFGNSWMNWVKQRPGKGLEWIGWIYPGDGNANYNGKFKGKATLTADKSSSTAYMQLSSLTSEDSAVYFCARALYDYDGWFAYWGQGTLVTVSA VL: DIQMNQSPSSLSASLGDTITIACRASQNIDIWLSWYQQKPGSIPKLLIYKASNLHTGVPSRFSGSGSGTDFTLTISSLQPEDIATYYCLQGQSFPFTFGSGTKLEIK")
1.07
